Test system: OVCAR-8 ovarian
assay overview: NCI-60 one-dose screen, 48 h
test settings: 10 µM unless noted
About 83,000 compounds went through this panel and 20% of them were active in at least one assay; those are over-represented in the sample as a whole. Active and inactive are the calls of the source. The calls were made as follows: active = growth percent below 10; inactive = the rest.
Valid outcomes are listed here; reply with one: active, inactive

Please review the entries below; each comes with its answer.
C=C1CCC2C(C)(COC(=O)CC)C(OC(=O)CC)CCC2(C)C1C/C=C1/C(=O)OCC1OC(=O)CC (centres undefined) : active
Cc1ccccc1NC(=O)NC(CC(N)=O)c1ccc2c(c1)nc(-c1cccc(Oc3ccc(C(C)(C)C)cc3)c1)n2CCCN1CCCCC1C (centres undefined) : active
COc1ccc2c(c1)[n+](=O)c(C(=O)/C=C/c1cc(OC)c(OC)c(OC)c1)c(C)n2[O-] : inactive
CC(=O)N1N=C(c2ccc(Nc3nc(NCCO)nc(NCCO)n3)cc2)CC1c1ccc(Cl)cc1 (centres undefined) : inactive

Tell me the assay call for CC(NC(=O)Oc1cccc2ccccc12)c1ccccc1 (centres undefined) please.
inactive

Now this one: `C[C@H]1c2cccc(O)c2C(O)=C2C(=O)[C@]3(O)C(O)=C(C(N)=O)C(=O)[C@@H](N(C)C)[C@@H]3[C@@H](O)[C@@H]21`
inactive

---

Tested on: HCT-15 colon
assay overview: NCI-60 one-dose screen, 48 h
test settings: 10 µM unless noted
This is part of a sample that, as a whole, favours compounds with a hit. Of some 83,000 tested, about 20% had one in any assay. Active and inactive are the calls of the source. The calls were made as follows: active = growth percent below 10; inactive = the rest.
Would you mind answering with one of these outcomes? 1.0 = active, 0.0 = inactive

Example cases with answers are listed next.
Cc1ccc2nc3c(n2c1)C(=O)C(=O)c1ccccc1-3 : 1.0
O=C(CN1CCN(c2ccc(Cl)cc2)CC1)N1CCN(c2nnc(-c3ccccc3)c(-c3ccccc3)n2)CC1 : 0.0

For BrC1CC(Br)c2c1c1c(c3c2C(Br)CC3Br)C(Br)CC1Br (stereo unspecified) , which call appears in the assay record?
0.0

Note, next up: CCCCOP(=O)(OCCCC)C(C(=O)OCC)C(CC(=O)OCC)C(=O)OCC (stereo unspecified)
0.0

And the next one, CCCCCCC(CC#N)(CCC)CCCC (stereo unspecified) ?
0.0

Then COc1ccc(C2=NN(C(N)=S)C(c3ccc4c(c3)OCO4)C2)cc1 (stereo unspecified) ?
0.0

Also `N#Cc1c(-c2ccccc2)cc(-c2ccccc2)n(CC(=O)O)c1=O` ?
0.0

Lookup `c1ccc(CN=C(NCc2ccccc2)NCc2ccccc2)cc1`
0.0

---

Tested on: MDA-MB-435 melanoma
assay overview: NCI-60 one-dose screen, 48 h (100 = growth as untreated, 0 = no growth, -100 = all killed)
test settings: 10 µM unless noted
About 83,000 compounds went through this panel and 20% of them were active in at least one assay; those are over-represented in the sample as a whole.
Recorded growth values for a group of compounds are listed next.
Number in %, nothing else.

CC(=O)[C@H]1CC[C@H]2[C@@H]3C[C@H](C)C4=CC(=O)CC[C@]4(C)[C@H]3C(=O)C[C@]12C : 119
COc1ccc2c(c1)CC/C(=C\c1ccc(OCC(=O)Nc3nc4ccccc4s3)cc1)C2=O : 100
COc1cc(C2CC(C3C(=O)N(C)C(=O)N(C)C3=O)=NN2C=O)cc(OC)c1OC (stereo not given) : 101
CCOC(=O)c1sc(NC(=O)COc2ccc(/C=C3\CCc4cc(OC)ccc4C3=O)cc2)nc1C : 87.1

growth lookup needed for `COc1cnc2c(c1)C(=O)c1c-2n(CCCN2CCOCC2)c(=O)c2cc(F)ccc12` , thanks.
-14.2

---

System: K-562 leukemia
assay overview: NCI-60 one-dose screen, 48 h (100 = growth as untreated, 0 = no growth, -100 = all killed)
test settings: 10 µM unless noted
Procedure: Cells are grown in 96 well plates and exposed to the test compound for 48 hours. Compounds are tested at a single concentration, which is 10^-5 M for most compounds. The reported endpoint is percent growth (GI% or GIPRCNT), where numbers from 0 - 100% represent growth inhibition, and numbers from -100% - 0 represent cell death. For example, a value of 40 represents 60% growth inhibition. A value of 0 means no net growth occurred over the course of the experiment. […]
The panel holds about 83,000 compounds, 20% with a hit somewhere; the sample as a whole holds those more often.
We begin with a simple list: items and their reported growth.
// units = %; emit number, no label

COc1ccccc1-n1c(-c2ccc(O)cc2C)cn2c3c(=O)[nH]c(=O)n(C)c3nc12 : 98.9
Oc1c(Cl)cc(Cl)c(Cl)c1Cc1c(O)c(Cl)cc(Cl)c1Cl : 4.84
CN1C(=O)C(C2=NN(C=O)C(c3ccc(F)cc3)C2)C(=O)N(C)C1=O (centres undefined) : 94.2

# lookup: growth of `O=C1CNc2cc(Cl)ccc2N1`
104

---

System: SF-268 CNS
assay overview: NCI-60 one-dose screen, 48 h (100 = growth as untreated, 0 = no growth, -100 = all killed)
test settings: 10 µM unless noted
This is part of a sample that, as a whole, favours compounds with a hit. Of some 83,000 tested, about 20% had one in any assay.
Readings of growth for the listed molecules
Provide only the numeric value, understood in %.

Answered cases to consult:
CO[C@H]1/C=C/O[C@@]2(C)Oc3c(C)c(O)c4c(O)c(c(/C=N/N5C(C)CN(Cc6ccc(C#N)cc6)CC5C)c(O)c4c3C2=O)NC(=O)/C(C)=C\C=C\[C@H](C)[C@H](O)[C@@H](C)[C@@H](O)[C@@H](C)[C@H](OC(C)=O)[C@@H]1C (stereo partly drawn) : 35
COc1ccc(NC(=O)c2ccccc2-c2ccccc2)c(C(N)=O)c1 : 49.5

Now take the following molecule into account.
Which growth value is on record for `N/C(=N\c1nc2ccccc2s1)NC(=O)Nc1ccccc1Cl` ?
60.9

---

Test system: A498 renal
assay overview: NCI-60 one-dose screen, 48 h
test settings: 10 µM unless noted
Procedure: Growth inhibition of the A498 human tumor cell line is measured as a screen for anti-cancer activity. Cells are grown in 96 well plates and exposed to the test compound for 48 hours. Compounds are tested at a single concentration, which is 10^-5 M for most compounds. The reported endpoint is percent growth (GI% or GIPRCNT), where numbers from 0 - 100% represent growth inhibition, and numbers from -100% - 0 represent cell death. For example, a value of 40 represents 60% growth inhibition. […]
The panel holds about 83,000 compounds, 20% with a hit somewhere; the sample as a whole holds those more often. The source made the active and inactive calls. How the source made its calls: active means growth percent below 10; inactive means the rest.
// one of true for active, false for inactive, no free text

Previously resolved entries follow.
CC(=O)OC1Oc2cc(C)c(C)cc2-c2oc(=O)c(-c3ccccc3)cc21 (centres undefined) : true
COc1ccc(-c2nnc3c4[nH]cnc4ncn23)c(OC)c1 : false
O=[N+]([O-])c1ccc(NS(=O)(=O)c2ccc(Cl)c(Cl)c2)cc1 : false
O=C(c1ccc(Cl)cc1)c1ccc(Cl)cc1 : false
O=C1CNc2cc(Cl)ccc2N1 : false

State the result this test recorded for `COc1ccc2cc(-c3nc4ccccc4[nH]3)c(=O)oc2c1` .
false

Quick one: `O=C1/C=C/[C@@H](O)[C@@H]2C[C@@H](O)C[C@H]2/C=C/CCC[C@H](CO)O1`
true

// same read-out, input: C=C1CCC2C(C)(COC(=O)CC)C(OC(=O)CC)CCC2(C)C1C/C=C1/C(=O)OCC1OC(=O)CC (centres undefined)
false

How about `COc1ccc2cc(C3=CC(=O)CCC3)ccc2c1` ?
true

What about this molecule? `CCCCNCCCN(CCCC)CCCNCCCC`
false

Ok, now `Cc1ncc(C(=O)Nc2ccc(CN3CCN(C)CC3)c(C(F)(F)F)c2)cc1C#Cc1cncc2ncccc12`
true

Can you handle `O=C(/C=C(\Nc1ccccc1)c1ccccc1)c1cn(-c2ccc([N+](=O)[O-])cc2)nn1` next?
false

Likewise for C[C@H]1O[C@@H](O[C@H]2[C@@H](O)C[C@H](O[C@H]3[C@@H](O)C[C@H](O[C@H]4CC[C@]5(C)C6CC[C@]7(C)[C@@H](C8=CC(=O)OC8)CC[C@]7(O)C6CC[C@@H]5C4)O[C@@H]3C)O[C@@H]2C)C[C@H](O)[C@@H]1O (some centres undefined) ?
true

COc1ccc(C2=NN(C(C)=O)C(c3c(C)nn(-c4ccccc4)c3N3CCOCC3)C2)cc1 (centres undefined) , same question.
false

---

System: SW-620 colon
assay overview: NCI-60 one-dose screen, 48 h (100 = growth as untreated, 0 = no growth, -100 = all killed)
test settings: 10 µM unless noted
Compounds without any hit were thinned out: in the full panel of roughly 83,000, 20% have a hit.
Each item that follows carries a reported growth.
Provide the reading as a plain figure in %.

In the examples that follow, each entry is paired with its recorded growth.
O=C1NC(=O)/C(=C/c2ccc(Cl)cc2Cl)N1 : 102
NS(=O)(=O)N(c1cc(C(F)(F)F)cc(C(F)(F)F)c1)C1CCN(Cc2ccc(C(F)(F)F)cc2)CC1 : 19.9
C[C@H]1c2cccc(O)c2C(O)=C2C(=O)[C@]3(O)C(O)=C(C(N)=O)C(=O)[C@@H](N(C)C)[C@@H]3[C@@H](O)[C@@H]21 : 65.9
O=[N+]([O-])c1ccc(N=Nc2c(Cl)cc(O)cc2Cl)cc1 : -10

Find the recorded growth belonging to `Cn1c(=O)c2[nH]c(=S)n(Cc3ccccc3)c2n(C)c1=O` and report it.
100

Provenance of the data: PubChem BioAssay (NCI)
